Hey, just so you know, these numbers are from PubChem BioAssay AID1159580.

test: chemical genetic growth profiling, strain panel (AID 1159580);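 further: tested at 20 µM; growth read once vehicle control cultures reached saturation at 30 °C; 1 = growth at the plate median or of vehicle wells; lower values mean less growth of the strain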; conditions: S. cerevisiae deletion strains, growth OD, locus YEL061C, strain CIN8
About 2,000 (36%) of roughly 5,500 compounds were called active. Another 18% or so got no clear call; they are omitted. No stated cut-off is given here; in the data, active means normalized growth mostly below about 0.91 (no sharp cut-off); inconclusive means no clear call, values can overlap the other calls; inactive means mostly above about 0.92. The list shows a part of the results.
Permitted responses: 1.0 (active), 0.0 (inactive)

Worked examples follow.
CC(OCc1ccccc1)C(NC(=O)OC(C)(C)C)C(N)=O (stereo not drawn)	0.0
CC(C)=CCCC1(C)C=Cc2c(O)c3c(c(CC=C(C)C)c2O1)OC12C(CC4CC1C(C)(C)OC2(C/C=C(/C)C(=O)O)C4O)C3=O (stereo not drawn)	0.0

For the next question, use this molecule.
Task: Write down the call the test reported for this molecule. Item: COc1ccc(Oc2cc(C)nc3ccccc23)cc1
Output: 1.0
